Please consider the recorded CC50 for SK-MEL-2 in what follows.
Express your answer in µM, writing the number without its unit.

- moleculeSmiles: "C=C1C(=O)O[C@H]2[C@H]1CC/C(COC(=O)N1CCC(F)(F)CC1)=C\\CC[C@@]1(C)O[C@@H]21"
  experimentalSystem: "SK-MEL-2"
  recordedMeasurement: 37
- moleculeSmiles: "C=C1C(=O)O[C@H]2[C@H]1CC/C(COC(=O)N1CCN(C)CC1)=C\\CC[C@@]1(C)O[C@@H]21"
  experimentalSystem: "SK-MEL-2"
  recordedMeasurement: 75.3
- moleculeSmiles: "C=C1C(=O)O[C@H]2[C@H]1CC/C(COC(=O)NCCN1CCCCC1)=C\\CC[C@@]1(C)O[C@@H]21"
  experimentalSystem: "SK-MEL-2"
  recordedMeasurement: 69.7
- moleculeSmiles: "C=C1C(=O)O[C@H]2[C@H]1CC/C(COC(=O)CCC(=O)N1CCC(C)CC1)=C\\CC[C@@]1(C)O[C@@H]21"
  experimentalSystem: "SK-MEL-2"
  recordedMeasurement: 61
- moleculeSmiles: "C=C1C(=O)O[C@H]2[C@H]1CC/C(COC(=O)NCCO)=C\\CC[C@@]1(C)O[C@@H]21"
  experimentalSystem: "SK-MEL-2"
  recordedMeasurement: 94.4

Request: # query: CC50 of entry `C=C1C(=O)O[C@H]2[C@H]1CC/C(COC(=O)NC)=C\CC[C@@]1(C)O[C@@H]21`
Response: 69

* * *

test system: NCI-H23; assay: panel of 60 human tumor cell lines, growth inhibition (Non-Small Cell Lung Cancer); details: Homo sapiens, NCI-H23, read-out: TGI
experimentalReadout: IC (TGI)

Solved entries:
- molecule: "C=C1C(=O)O[C@H]2[C@H]1CC/C(COC(=O)OCCN(C)C)=C\\CC[C@@]1(C)O[C@@H]21 [JVM 2-35]"
  recordedMeasurement: "38.2 µM"
- molecule: "C=C1C(=O)O[C@H]2[C@H]1CC/C(COC(=O)NCCN1CCOCC1)=C\\CC[C@@]1(C)O[C@@H]21 [JVM 57]"
  recordedMeasurement: "36.5 µM"
- molecule: "C=C1C(=O)O[C@H]2[C@H]1CC/C(COC(=O)OC)=C\\CC[C@@]1(C)O[C@@H]21 [JVM 2-40]"
  recordedMeasurement: "33.3 µM"

Now examine the next entry.
Request: So what's the measured IC (TGI) for this one? C=C1C(=O)O[C@H]2[C@H]1CC/C(COC(=O)OCCCN1CCCCC1)=C\CC[C@@]1(C)O[C@@H]21 [JVM 2-26]
Response: 29.4 µM

* * *

system: IGROV1; experiment: panel of 60 human tumor cell lines, growth inhibition (Ovarian Cancer); settings: IGROVI; Log10 Concentration −6.0
Item-by-item account of Percent Growth
Field: numeric (%). Do not append units.

Some molecules with recorded Percent Growth:
- molecule: "C=C1C(=O)O[C@H]2[C@H]1CC/C(COC(=O)CCC(=O)NCc1ccc(Cl)nc1)=C\\CC[C@@]1(C)O[C@@H]21 [JVM 96]"
  experimentalSystem: "IGROV1"
  resultUnit: "%"
  Percent Growth: 107
- molecule: "C=C1C(=O)O[C@H]2[C@H]1CC/C(COC(=O)NCCN1CCCCC1)=C\\CC[C@@]1(C)O[C@@H]21 [JVM 2-13]"
  experimentalSystem: "IGROV1"
  resultUnit: "%"
  Percent Growth: 101
- molecule: "C=C1C(=O)O[C@H]2[C@H]1CC/C(COC(=O)NC)=C\\CC[C@@]1(C)O[C@@H]21 [JVM 2-57]"
  experimentalSystem: "IGROV1"
  resultUnit: "%"
  Percent Growth: 102

Request: Look up Percent Growth: C=C1C(=O)O[C@H]2[C@H]1CC/C(COC(=O)N1CCN(C)CC1)=C\CC[C@@]1(C)O[C@@H]21 [JVM 2-44]
Response: 107
